Reported values of Ki for individual entries
assayed target: SSTR2 (Homo sapiens, UniProt P30874)
Sequence (P30874 whole entry): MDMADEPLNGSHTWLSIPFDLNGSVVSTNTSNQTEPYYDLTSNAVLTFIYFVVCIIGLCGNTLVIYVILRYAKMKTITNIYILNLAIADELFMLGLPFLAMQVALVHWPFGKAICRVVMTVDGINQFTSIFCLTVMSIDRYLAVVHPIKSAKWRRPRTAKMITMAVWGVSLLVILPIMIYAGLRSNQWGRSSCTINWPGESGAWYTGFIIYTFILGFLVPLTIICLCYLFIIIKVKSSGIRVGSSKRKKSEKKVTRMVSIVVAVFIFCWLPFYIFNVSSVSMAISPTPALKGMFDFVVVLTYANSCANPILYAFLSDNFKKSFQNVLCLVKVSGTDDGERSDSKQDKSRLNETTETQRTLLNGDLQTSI
experimental protocol: SSTR binding affinity by radioligand binding competition assay ([125I]-Tyr11-Somatostatin, membrane extracts)
condition parameters: radioligand competition, [125I]-Tyr11-Somatostatin 0.1 nM, membrane extracts; Ki from IC50 by Cheng Prusoff; read-out: SSTR2 Ki
Protocol: Macrocyclic peptides in this invention were tested for binding to SSTR protein by a radioligand binding competition assay. […] Nonspecific binding is determined by co-incubation with 200-fold excess of cold competitor (SST28). […] The plates are incubated 15 min on an orbital shaker and then counted with a TopCount™ for 1 min/well. […]
Numbered stars: 1 amine (or outer) side, 2 acyl side, 3 side chain; on linkers, the order of the positions; unused ones are H or OH. Square brackets hold non-standard residues; d marks the D form. Side chains are listed from the residue outwards. Peptide text beside a SMILES is read from it. * marks the point of attachment. DOTA(Lu)NH(CH2)6NHCOCH2 = O=C(CN1CCN2CCN3CCN(CC1)CC(=O)[O][Lu]([O]C(=O)C2)[O]C(=O)C3)NCCCCCCNC(=O)C*; DOTA(Lu) = O=C1CN2CCN3CCN(CC(=O)*)CCN(CC2)CC(=O)[O][Lu]([O]1)[O]C(=O)C3; Ala(piperidin-4-yl) = O=C([C@H](CC1CCN([*:3])CC1)N[*:1])[*:2]; dTrp(βS-Me) = C[C@@H](c1c[nH]c2ccccc12)[C@@H](N)C(=O)O; X4 = C[C@@H](c1ccccc1)[C@H](N[*:1])C(=O)[*:2]; Tyr(3-F) = N[C@@H](Cc1ccc(O)c(F)c1)C(=O)O; NMehCys = CN[C@@H](CCS)C(=O)O; NMeK = CN[C@@H](CCCCN)C(=O)O; βAla = NCCC(=O)O

C[C@@H](O)[C@@H]1NC(=O)[C@H](CCCCN)NC(=O)[C@@H](Cc2c[nH]c3ccccc23)NC(=O)[C@H]([C@@H](C)c2ccccc2)NC(=O)[C@H](CCSCC(=O)NCCCCCCNC(=O)CN2CCN3CCN4CCN(CC2)CC(=O)[O][Lu]([O]C(=O)C3)[O]C(=O)C4)N(C)C(=O)[C@H](Cc2ccccc2)NC1=O [RB-0003136] (cyclo(F[NMehCys](DOTA(Lu)NH(CH2)6NHCOCH2)[X4][dW]KT))    1 to 3.33 nM
C[C@@H](O)[C@@H]1NC(=O)[C@H](CCCCN)NC(=O)[C@@H](Cc2c[nH]c3ccccc23)NC(=O)[C@H](Cc2ccc(O)c(F)c2)NC(=O)[C@H](CCSCC(=O)NCCCCCCNC(=O)CN2CCN3CCN4CCN(CC2)CC(=O)[O][Lu]([O]C(=O)C3)[O]C(=O)C4)N(C)C(=O)[C@H](Cc2ccccc2)NC1=O [RB-0003280] (cyclo(F[NMehCys](DOTA(Lu)NH(CH2)6NHCOCH2)[Tyr(3-F)][dW]KT))    < 1 nM

Now look at this entry.
Given C[C@@H](O)[C@@H]1NC(=O)[C@H](CC2CCNCC2)NC(=O)[C@@H]([C@@H](C)c2c[nH]c3ccccc23)NC(=O)[C@H](Cc2ccc(O)cc2)NC(=O)[C@H](CCCCNC(=O)CCNC(=O)CN2CCN3CCN4CCN(CC2)CC(=O)[O][Lu]([O]C(=O)C3)[O]C(=O)C4)N(C)C(=O)[C@H](Cc2ccccc2)NC1=O [RB-0006400] (cyclo(F[NMeK]([βAla-DOTA(Lu)])Y[dTrp(βS-Me)][Ala(piperidin-4-yl)]T)) , state its recorded Ki.
1 to 3.33 nM

---

Reported values of Ki for individual entries
assayed target: SSTR2 (Homo sapiens)
experimental protocol: SSTR binding affinity by radioligand binding competition assay ([125I]-Tyr11-Somatostatin, membrane extracts)
condition parameters: radioligand competition, [125I]-Tyr11-Somatostatin 0.1 nM, membrane extracts; Ki from IC50 by Cheng Prusoff; read-out: SSTR2 Ki
Method: Macrocyclic peptides in this invention were tested for binding to SSTR protein by a radioligand binding competition assay. […] Nonspecific binding is determined by co-incubation with 200-fold excess of cold competitor (SST28). […] The plates are incubated 15 min on an orbital shaker and then counted with a TopCount™ for 1 min/well. […]
Numbered stars: 1 amine (or outer) side, 2 acyl side, 3 side chain; on linkers, the order of the positions; unused ones are H or OH. Square brackets hold non-standard residues; d marks the D form. Side chains are listed from the residue outwards. Peptide text beside a SMILES is read from it. * marks the point of attachment. DOTA(Lu)NH(CH2)6NHCOCH2 = O=C(CN1CCN2CCN3CCN(CC1)CC(=O)[O][Lu]([O]C(=O)C2)[O]C(=O)C3)NCCCCCCNC(=O)C*; X10 = O=C(CN1CCN2CCN3CCN(CC1)CC(=O)[O][Lu]([O]C(=O)C2)[O]C(=O)C3)NCC12CCC(C(=O)*)(CC1)CC2; X6 = O=C(CN1CCN2CCN3CCN(CC1)CC(=O)[O][Lu]([O]C(=O)C2)[O]C(=O)C3)NCCOCCOCCOCCNC(=O)C*; DOTA(Lu) = O=C1CN2CCN3CCN(CC(=O)*)CCN(CC2)CC(=O)[O][Lu]([O]1)[O]C(=O)C3; Ala(piperidin-4-yl) = O=C([C@H](CC1CCN([*:3])CC1)N[*:1])[*:2]; dTrp(βS-Me) = C[C@@H](c1c[nH]c2ccccc12)[C@@H](N)C(=O)O; 4Pal = N[C@@H](Cc1ccncc1)C(=O)O; NMeOrn = CN[C@@H](CCCN)C(=O)O; NMehCys = CN[C@@H](CCS)C(=O)O; NMeK = CN[C@@H](CCCCN)C(=O)O; Ahx = NCCCCCC(=O)O

Consider the worked cases shown below.
C[C@@H](O)[C@@H]1NC(=O)[C@H](CCCCN)NC(=O)[C@@H](Cc2c[nH]c3ccccc23)NC(=O)[C@H](Cc2ccc(O)cc2)NC(=O)[C@H](CCNC(=O)CCCCCNC(=O)CN2CCN3CCN4CCN(CC2)CC(=O)[O][Lu]([O]C(=O)C3)[O]C(=O)C4)N(C)C(=O)[C@H](Cc2ccccc2)NC1=O    10 to 33.3 nM
C[C@@H](O)[C@@H]1NC(=O)[C@H](CCCCN)NC(=O)[C@@H](Cc2c[nH]c3ccccc23)NC(=O)[C@H](Cc2ccc(O)cc2)NC(=O)[C@H](CCSCC(=O)NCCCCCCNC(=O)CN2CCN3CCN4CCN(CC2)CC(=O)[O][Lu]([O]C(=O)C3)[O]C(=O)C4)N(C)C(=O)[C@H](Cc2ccncc2)NC1=O [RB-0003277] (cyclo([4Pal][NMehCys](DOTA(Lu)NH(CH2)6NHCOCH2)Y[dW]KT))    1 to 3.33 nM
C[C@@H](O)[C@@H]1NC(=O)[C@H](CCCCN)NC(=O)[C@@H](Cc2c[nH]c3ccccc23)NC(=O)[C@H](Cc2ccncc2)NC(=O)[C@H](CCSCC(=O)NCCCCCCNC(=O)CN2CCN3CCN4CCN(CC2)CC(=O)[O][Lu]([O]C(=O)C3)[O]C(=O)C4)N(C)C(=O)[C@H](Cc2ccncc2)NC1=O [RB-0003443] (cyclo([4Pal][NMehCys](DOTA(Lu)NH(CH2)6NHCOCH2)[4Pal][dW]KT))    10 to 33.3 nM
C[C@@H](O)[C@@H]1NC(=O)[C@H](CCCCN)NC(=O)[C@@H](Cc2c[nH]c3ccccc23)NC(=O)[C@H](Cc2ccncc2)NC(=O)[C@H](CCSCC(=O)NCCCCCCNC(=O)CN2CCN3CCN4CCN(CC2)CC(=O)[O][Lu]([O]C(=O)C3)[O]C(=O)C4)N(C)C(=O)[C@H](Cc2ccccc2)NC1=O [RB-0003002] (cyclo([4Pal][dW]KTF[NMehCys](DOTA(Lu)NH(CH2)6NHCOCH2)))    < 1 nM
C[C@@H](O)[C@@H]1NC(=O)[C@H](CC2CCNCC2)NC(=O)[C@@H]([C@@H](C)c2c[nH]c3ccccc23)NC(=O)[C@H](Cc2ccc(O)cc2)NC(=O)[C@H](CCCCNC(=O)C23CCC(CNC(=O)CN4CCN5CCN6CCN(CC4)CC(=O)[O][Lu]([O]C(=O)C5)[O]C(=O)C6)(CC2)CC3)N(C)C(=O)[C@H](Cc2ccccc2)NC1=O [RB-0006558] (cyclo(F[NMeK](X10)Y[dTrp(βS-Me)][Ala(piperidin-4-yl)]T))    < 1 nM
C[C@@H](O)[C@@H]1NC(=O)[C@H](CCCCN)NC(=O)[C@@H](Cc2c[nH]c3ccccc23)NC(=O)[C@H](Cc2ccncc2)NC(=O)[C@H](CCSCC(=O)NCCOCCOCCOCCNC(=O)CN2CCN3CCN4CCN(CC2)CC(=O)[O][Lu]([O]C(=O)C3)[O]C(=O)C4)N(C)C(=O)[C@H](Cc2ccccc2)NC1=O [RB-0003504] (cyclo([4Pal][dW]KTF[NMehCys](X6)))    1 to 3.33 nM
C[C@@H]1NC(=O)[C@H](CCCCN)NC(=O)[C@@H](Cc2c[nH]c3ccccc23)NC(=O)[C@H](Cc2ccc(O)cc2)NC(=O)[C@H](CCSCC(=O)NCCCCCCNC(=O)CN2CCN3CCN4CCN(CC2)CC(=O)[O][Lu]([O]C(=O)C3)[O]C(=O)C4)N(C)C(=O)[C@H](Cc2ccccc2)NC1=O [RB-0005744] (cyclo(AF[NMehCys](DOTA(Lu)NH(CH2)6NHCOCH2)Y[dW]K))    < 1 nM
CC(C)[C@@H]1NC(=O)[C@H](CCCCN)NC(=O)[C@@H](Cc2c[nH]c3ccccc23)NC(=O)[C@H](Cc2ccc(O)cc2)NC(=O)[C@H](CCCNC(=O)CCCCCNC(=O)CN2CCN3CCN4CCN(CC2)CC(=O)[O][Lu]([O]C(=O)C3)[O]C(=O)C4)N(C)C(=O)[C@H](Cc2ccccc2)NC1=O [RB-0002672] (cyclo(F[NMeOrn]([Ahx-DOTA(Lu)])Y[dW]KV))    1 to 3.33 nM
C[C@@H](O)[C@@H]1NC(=O)[C@H](CCCCN)NC(=O)[C@@H]([C@@H](C)c2c[nH]c3ccccc23)NC(=O)[C@H](Cc2ccc(O)cc2)NC(=O)[C@H](CCSCC(=O)NCCCCCCNC(=O)CN2CCN3CCN4CCN(CC2)CC(=O)[O][Lu]([O]C(=O)C3)[O]C(=O)C4)N(C)C(=O)[C@H](Cc2ccccc2)NC1=O [RB-0003148] (cyclo(F[NMehCys](DOTA(Lu)NH(CH2)6NHCOCH2)Y[dTrp(βS-Me)]KT))    < 1 nM

Now look at this entry.
Given CC(C)[C@@H]1NC(=O)[C@H](CCCCN)NC(=O)[C@@H]([C@@H](C)c2c[nH]c3ccccc23)NC(=O)[C@H](Cc2ccncc2)NC(=O)[C@H](CCSCC(=O)NCCCCCCNC(=O)CN2CCN3CCN4CCN(CC2)CC(=O)[O][Lu]([O]C(=O)C3)[O]C(=O)C4)N(C)C(=O)[C@H](Cc2ccccc2)NC1=O [RB-0004825] (cyclo([4Pal][dTrp(βS-Me)]KVF[NMehCys](DOTA(Lu)NH(CH2)6NHCOCH2))) , state its recorded Ki.
< 1 nM
